molecular target: GCN2 kinase (Homo sapiens, UniProt Q9P2K8); assay: GCN2 enzyme inhibition assay (Transcreener ADP2 fluorescence polarization); assay type: biochemical; conditions: Enzyme activity for compounds of Formula IV; Ki(app), 280 μM ATP, 25° C.
Sequence (Q9P2K8 whole entry): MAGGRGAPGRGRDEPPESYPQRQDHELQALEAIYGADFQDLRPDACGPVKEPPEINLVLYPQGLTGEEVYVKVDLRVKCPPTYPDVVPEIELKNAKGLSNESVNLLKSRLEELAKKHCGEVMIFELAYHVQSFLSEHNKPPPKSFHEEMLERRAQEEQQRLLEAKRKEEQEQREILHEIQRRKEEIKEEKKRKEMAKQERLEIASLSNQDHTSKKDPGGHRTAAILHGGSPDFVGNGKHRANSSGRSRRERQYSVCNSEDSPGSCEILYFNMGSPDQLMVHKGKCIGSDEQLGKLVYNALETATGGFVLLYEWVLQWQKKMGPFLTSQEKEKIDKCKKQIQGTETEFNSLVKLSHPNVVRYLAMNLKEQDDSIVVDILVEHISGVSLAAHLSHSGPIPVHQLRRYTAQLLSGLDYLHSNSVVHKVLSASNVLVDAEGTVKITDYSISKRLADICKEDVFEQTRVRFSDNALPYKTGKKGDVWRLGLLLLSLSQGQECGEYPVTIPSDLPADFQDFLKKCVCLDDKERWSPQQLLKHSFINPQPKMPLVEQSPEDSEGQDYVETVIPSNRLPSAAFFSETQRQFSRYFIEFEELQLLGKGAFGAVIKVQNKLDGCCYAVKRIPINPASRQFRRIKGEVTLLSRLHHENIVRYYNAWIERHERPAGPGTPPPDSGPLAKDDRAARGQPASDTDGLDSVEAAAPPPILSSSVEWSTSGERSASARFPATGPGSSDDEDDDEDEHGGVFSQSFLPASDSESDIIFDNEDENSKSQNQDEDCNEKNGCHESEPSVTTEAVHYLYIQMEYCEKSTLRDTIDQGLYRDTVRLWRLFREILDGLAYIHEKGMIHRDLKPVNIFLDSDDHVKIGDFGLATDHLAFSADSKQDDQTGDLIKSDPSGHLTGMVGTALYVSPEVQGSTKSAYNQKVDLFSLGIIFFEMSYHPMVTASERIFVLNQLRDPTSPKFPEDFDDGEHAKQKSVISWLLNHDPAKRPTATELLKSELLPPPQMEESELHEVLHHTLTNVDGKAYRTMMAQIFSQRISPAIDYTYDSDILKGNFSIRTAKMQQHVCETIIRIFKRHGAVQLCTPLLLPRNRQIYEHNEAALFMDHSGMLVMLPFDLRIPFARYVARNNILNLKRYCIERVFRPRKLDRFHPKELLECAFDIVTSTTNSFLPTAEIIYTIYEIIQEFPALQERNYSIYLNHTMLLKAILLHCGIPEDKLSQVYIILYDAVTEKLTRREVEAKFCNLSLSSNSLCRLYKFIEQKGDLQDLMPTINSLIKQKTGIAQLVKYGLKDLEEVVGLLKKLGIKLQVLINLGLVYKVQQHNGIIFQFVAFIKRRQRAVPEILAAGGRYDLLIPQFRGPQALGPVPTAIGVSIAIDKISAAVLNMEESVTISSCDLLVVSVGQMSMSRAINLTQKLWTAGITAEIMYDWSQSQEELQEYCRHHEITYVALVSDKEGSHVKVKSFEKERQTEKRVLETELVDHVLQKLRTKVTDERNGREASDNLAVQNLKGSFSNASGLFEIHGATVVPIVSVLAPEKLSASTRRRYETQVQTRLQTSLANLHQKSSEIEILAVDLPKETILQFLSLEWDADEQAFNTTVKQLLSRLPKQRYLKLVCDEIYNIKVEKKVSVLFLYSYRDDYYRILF
pKi: −log10 of the molar value.
Attribute: pKi
READOUT NAME: pKi

| MOLECULE | TARGET OR SYSTEM | MEASUREMENT |
| --- | --- | --- |
| CC1(C)COCCN1c1ccnc(-c2cnc3cnc(C(F)(F)F)cn23)n1 | GCN2 kinase (Homo sapiens, UniProt Q9P2K8) | 6.00 to 7.00 |
| CC1CN(c2ccnc(-c3cnc4cnc(C(F)(F)F)cn34)n2)C(C)C(c2c[nH]cn2)O1 (single isomer, unassigned) [IV-638] | GCN2 kinase (Homo sapiens, UniProt Q9P2K8) | 6.00 to 7.00 |
| FC(F)c1cn2c(-c3nccc(N4CCCC5CC54)n3)cnc2cn1 (stereo not shown) | GCN2 kinase (Homo sapiens, UniProt Q9P2K8) | 6.00 to 7.00 |
| FC(F)(F)c1cn2c(-c3nccc(N4CCCC(c5cc[nH]n5)C4)n3)cnc2cn1 (stereo not shown) | GCN2 kinase (Homo sapiens, UniProt Q9P2K8) | 7.00 to 8.00 |
| FC(F)(F)c1cn2c(-c3nccc(N4CCCC(c5ncon5)C4)n3)cnc2cn1 (stereo not shown) | GCN2 kinase (Homo sapiens, UniProt Q9P2K8) | 6.00 to 7.00 |
| CC1CC(c2cn[nH]c2)C(C)N(c2ccnc(-c3cnc4cnc(C(F)(F)F)cn34)n2)C1 (single isomer, unassigned) [IV-311] | GCN2 kinase (Homo sapiens, UniProt Q9P2K8) | > 8.00 |
| CNC(=O)c1cn2c(-c3cccc(N4CCN(C(C)=O)CC4)n3)cnc2cn1 | GCN2 kinase (Homo sapiens, UniProt Q9P2K8) | 7.00 to 8.00 |
| Cc1c[nH]nc1C1CN(c2ccnc(-c3cnc4cnc(C(F)(F)F)cn34)n2)CCO1 (stereo not shown) | GCN2 kinase (Homo sapiens, UniProt Q9P2K8) | 6.00 to 7.00 |
| FC(F)(F)c1cn2c(-c3nccc(N4CCC(C5COC5)C4)n3)cnc2cn1 (stereo not shown) | GCN2 kinase (Homo sapiens, UniProt Q9P2K8) | 6.00 to 7.00 |
| CC1CC(C(N)=O)C(C)N(c2ccnc(-c3cnc4cnc(C(F)(F)F)cn34)n2)C1 (single isomer, unassigned) [IV-481] | GCN2 kinase (Homo sapiens, UniProt Q9P2K8) | 7.00 to 8.00 |
| C[C@H]1[C@@H](c2cn[nH]c2)NCCN1c1ccnc(-c2cnc3cnc(Br)cn23)n1 (racemic) | GCN2 kinase (Homo sapiens, UniProt Q9P2K8) | > 8.00 |
| CC1CN(c2ccnc(-c3cnc4cnc(C(F)(F)F)cn34)n2)CC(c2c[nH]cn2)O1 (single isomer, unassigned) [IV-406] | GCN2 kinase (Homo sapiens, UniProt Q9P2K8) | 7.00 to 8.00 |
| Cc1nc(C2CN(c3ccnc(-c4cnc5cnc(C(F)(F)F)cn45)n3)CCO2)n[nH]1 (stereo not shown) | GCN2 kinase (Homo sapiens, UniProt Q9P2K8) | 6.00 to 7.00 |
| Brc1cn2c(-c3nccc(N4CCCC(c5c[nH]cn5)C4)n3)cnc2cn1 (single isomer, unassigned) [IV-362] | GCN2 kinase (Homo sapiens, UniProt Q9P2K8) | 7.00 to 8.00 |
| CC1NCCN(c2ccnc(-c3cnc4cnc(C(F)F)cn34)n2)C1c1cn[nH]c1 (stereo not shown) | GCN2 kinase (Homo sapiens, UniProt Q9P2K8) | 6.00 to 7.00 |
| OC1CCN(c2ccnc(-c3cnc4cnc(C(F)(F)F)cn34)n2)CC1c1cn[nH]c1 (single isomer, unassigned) [IV-624] | GCN2 kinase (Homo sapiens, UniProt Q9P2K8) | 7.00 to 8.00 |
| CC1CN(c2ccnc(-c3cnc4cnc(C(F)(F)F)cn34)n2)C(C)C(c2cn[nH]c2)O1 (stereo not shown) [IV-415] | GCN2 kinase (Homo sapiens, UniProt Q9P2K8) | > 8.00 |
| O=C(Nc1ccncc1)[C@H]1CCCN(c2ccnc(-c3cnc4cnc(C(F)(F)F)cn34)n2)C1 | GCN2 kinase (Homo sapiens, UniProt Q9P2K8) | 6.00 to 7.00 |
| CC1CN(c2ccnc(-c3cnc4cnc(Br)cn34)n2)C(C)C(c2cn[nH]c2)N1 (stereo not shown) [IV-279] | GCN2 kinase (Homo sapiens, UniProt Q9P2K8) | > 8.00 |
| C[C@H]1CN(c2ccnc(-c3cnc4cnc(C(F)F)cn34)n2)C[C@@H](CNS(C)(=O)=O)C1(F)F | GCN2 kinase (Homo sapiens, UniProt Q9P2K8) | 6.00 to 7.00 |
| CC1CN(c2ccnc(-c3cnc4cnc(C(F)(F)F)cn34)n2)CC1C (stereo not shown) | GCN2 kinase (Homo sapiens, UniProt Q9P2K8) | 6.00 to 7.00 |
| FC(F)(F)c1cn2c(-c3nccc(N4CCOC(c5cn[nH]c5)C4)n3)cnc2cn1 (single isomer, unassigned) [IV-7] | GCN2 kinase (Homo sapiens, UniProt Q9P2K8) | 7.00 to 8.00 |
| CC1CN(c2ccnc(-c3cnc4cnc(C(F)(F)F)cn34)n2)CC(c2cn[nH]c2)O1 (single isomer, unassigned) [IV-14] | GCN2 kinase (Homo sapiens, UniProt Q9P2K8) | > 8.00 |
| NC(=O)CC1CCN(c2ccnc(-c3cnc4cnc(C(F)(F)F)cn34)n2)C1 (stereo not shown) | GCN2 kinase (Homo sapiens, UniProt Q9P2K8) | 6.00 to 7.00 |
| CN1CC2(CCN(c3ccnc(-c4cnc5cnc(C(F)(F)F)cn45)n3)C2)OCC1=O (stereo not shown) | GCN2 kinase (Homo sapiens, UniProt Q9P2K8) | 6.00 to 7.00 |
